System: SR leukemia
Test: NCI-60 one-dose screen, 48 h (100 = growth as untreated, 0 = no growth, -100 = all killed)
Settings: 10 µM unless noted
About 83,000 compounds went through this panel and 20% of them were active in at least one assay; those are over-represented in the sample as a whole.
Class assignment keyed on growth, ranges Low (below 10%), Medium (10% to below 50%), High (50% or more)

Some entries whose results are on file:
Nc1nccc(=S)[nH]1 = High
CN1CCN(CC(O)COc2c(Br)c(Br)c(Br)c3c2OC(C)(C)C3)CC1 (stereo unspecified) = Low
O=C(Nc1ccc(-n2ccc3c(NC(=O)c4ccccc4)nccc32)cc1)Nc1ccc(Cl)c(Cl)c1 = Low

# input Class for Nc1ncnc2c1c(-c1ccc(Oc3ccccc3)cc1)nn2C[C@@H]1SSC[C@H]1O ?
# output Low

# input Looking at O=C(C[n+]1cccc(Br)c1)c1ccc2c(c1)CCCC2 , which class would you pick?
# output High

# input Into which category would you place O=C(Nc1ccc(F)cc1)Nc1ccc(Cl)c([N+](=O)[O-])c1 ?
# output Medium
